- target.system: native human MET on living cells (human, UniProt P08581 25-1390)
- Sequence (P08581 25-1390): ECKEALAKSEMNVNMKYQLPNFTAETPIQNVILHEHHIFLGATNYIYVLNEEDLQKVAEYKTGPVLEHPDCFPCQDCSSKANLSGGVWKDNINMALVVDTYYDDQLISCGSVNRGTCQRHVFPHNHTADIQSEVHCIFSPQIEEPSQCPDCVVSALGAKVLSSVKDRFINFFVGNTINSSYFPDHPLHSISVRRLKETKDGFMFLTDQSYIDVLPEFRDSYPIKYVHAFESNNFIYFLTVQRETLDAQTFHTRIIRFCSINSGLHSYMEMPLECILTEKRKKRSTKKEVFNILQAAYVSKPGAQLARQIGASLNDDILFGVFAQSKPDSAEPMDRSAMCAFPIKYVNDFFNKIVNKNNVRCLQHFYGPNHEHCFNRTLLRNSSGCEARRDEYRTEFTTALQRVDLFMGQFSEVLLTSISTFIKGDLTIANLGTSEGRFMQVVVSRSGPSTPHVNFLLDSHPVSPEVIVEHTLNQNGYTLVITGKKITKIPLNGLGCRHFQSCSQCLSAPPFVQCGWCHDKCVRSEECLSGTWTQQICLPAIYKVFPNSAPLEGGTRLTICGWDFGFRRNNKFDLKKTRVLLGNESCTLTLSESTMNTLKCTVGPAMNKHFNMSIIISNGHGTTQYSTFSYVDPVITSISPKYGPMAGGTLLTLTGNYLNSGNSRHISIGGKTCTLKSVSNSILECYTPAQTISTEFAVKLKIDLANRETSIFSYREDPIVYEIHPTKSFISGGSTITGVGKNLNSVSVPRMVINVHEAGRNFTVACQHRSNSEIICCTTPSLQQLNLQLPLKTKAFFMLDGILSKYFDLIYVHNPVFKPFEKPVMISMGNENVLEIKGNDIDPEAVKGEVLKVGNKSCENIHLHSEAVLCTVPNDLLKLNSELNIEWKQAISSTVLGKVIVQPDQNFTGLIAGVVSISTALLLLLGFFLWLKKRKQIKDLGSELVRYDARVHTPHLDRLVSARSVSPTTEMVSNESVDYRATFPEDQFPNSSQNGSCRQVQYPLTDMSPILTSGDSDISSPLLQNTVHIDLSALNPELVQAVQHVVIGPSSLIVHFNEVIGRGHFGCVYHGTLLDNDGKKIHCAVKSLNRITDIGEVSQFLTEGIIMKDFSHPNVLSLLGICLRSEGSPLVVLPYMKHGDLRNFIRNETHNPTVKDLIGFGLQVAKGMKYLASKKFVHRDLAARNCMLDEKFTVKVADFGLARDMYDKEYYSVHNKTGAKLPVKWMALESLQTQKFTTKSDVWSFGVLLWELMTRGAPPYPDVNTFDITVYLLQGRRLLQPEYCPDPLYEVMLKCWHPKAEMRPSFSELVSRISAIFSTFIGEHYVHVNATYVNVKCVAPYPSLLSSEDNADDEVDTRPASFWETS
- assay.protocol: cell-based or functional assay
reported.metric: protection from staurosporine-induced apoptosis EC50, MCF10A cells

Below are worked cases with known answers.
| binder | recorded.result |
| --- | --- |
| 71A3 chimeric llama-human IgG1 mAb (antibody, V domains shown, human IgG1 CH1-CH2-CH3 and human CL lambda) VH: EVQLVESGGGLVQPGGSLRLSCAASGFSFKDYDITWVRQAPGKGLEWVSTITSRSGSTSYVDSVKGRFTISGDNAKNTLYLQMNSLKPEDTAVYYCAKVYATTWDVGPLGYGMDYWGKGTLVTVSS VL: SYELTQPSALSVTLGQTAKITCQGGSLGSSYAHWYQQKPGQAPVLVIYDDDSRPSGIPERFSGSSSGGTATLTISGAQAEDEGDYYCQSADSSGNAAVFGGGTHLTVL | < 0.5 nM |
| 72F8 chimeric llama-human IgG1 mAb (antibody, V domains shown, human IgG1 CH1-CH2-CH3 and human CL lambda) VH: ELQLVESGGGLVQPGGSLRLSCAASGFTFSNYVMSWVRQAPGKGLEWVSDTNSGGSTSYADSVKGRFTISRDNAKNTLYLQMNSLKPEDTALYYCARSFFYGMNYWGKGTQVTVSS VL: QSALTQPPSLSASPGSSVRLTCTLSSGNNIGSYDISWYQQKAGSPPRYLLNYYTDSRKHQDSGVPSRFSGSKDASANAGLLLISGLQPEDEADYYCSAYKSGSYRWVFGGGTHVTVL | > 32 nM |
| 74C8 chimeric llama-human IgG1 mAb (antibody, V domains shown, human IgG1 CH1-CH2-CH3 and human CL lambda) VH: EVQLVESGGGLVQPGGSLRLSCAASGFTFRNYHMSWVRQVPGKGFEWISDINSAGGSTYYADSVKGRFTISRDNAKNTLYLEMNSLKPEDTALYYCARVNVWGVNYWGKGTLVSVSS VL: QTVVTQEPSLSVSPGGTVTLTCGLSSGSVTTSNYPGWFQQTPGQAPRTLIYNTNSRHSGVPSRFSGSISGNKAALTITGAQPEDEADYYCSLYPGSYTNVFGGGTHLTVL | > 32 nM |

Record 71G12 chimeric llama-human IgG1 mAb (antibody, V domains shown, human IgG1 CH1-CH2-CH3 and human CL kappa) VH: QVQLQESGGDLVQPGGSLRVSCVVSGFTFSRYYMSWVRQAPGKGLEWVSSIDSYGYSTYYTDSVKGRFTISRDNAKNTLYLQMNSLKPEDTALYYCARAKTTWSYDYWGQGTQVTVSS VL: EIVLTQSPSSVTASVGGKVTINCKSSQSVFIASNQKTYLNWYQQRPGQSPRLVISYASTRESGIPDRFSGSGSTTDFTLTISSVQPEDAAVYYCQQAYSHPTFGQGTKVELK . Reported protection from staurosporine-induced apoptosis EC50, MCF10A cells: > 32 nM

protection from staurosporine-induced apoptosis EC50, MCF10A cells reported for this binder 76H10 chimeric llama-human IgG1 mAb (antibody, V domains shown, human IgG1 CH1-CH2-CH3 and human CL lambda) VH: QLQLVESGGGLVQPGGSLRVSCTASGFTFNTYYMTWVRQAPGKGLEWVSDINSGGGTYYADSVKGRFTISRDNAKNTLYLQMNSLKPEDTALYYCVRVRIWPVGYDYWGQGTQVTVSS VL: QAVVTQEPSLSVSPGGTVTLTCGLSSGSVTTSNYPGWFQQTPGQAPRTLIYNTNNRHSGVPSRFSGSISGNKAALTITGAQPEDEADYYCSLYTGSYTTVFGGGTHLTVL : > 32 nM

Where do these numbers come from? They come from patent US20200407452A1.
